experimental.details: Stability in human plasma assessed as parent compound remaining measured at 15 mins
Format: ADME, cell-free
condition.description: read-out: Stability
Record form. Attribute: remaining at 0.25 h. Fill in for each entry.

Read off the recorded remaining at 0.25 h for `Cc1cc(C#N)cc(C)c1Oc1nc(Nc2ccc(C#N)cc2)nc(N)c1Br`
102%

Kindly indicate its recorded remaining at 0.25 h. Item: `Cc1cc(/C=C/C#N)cc(C)c1Nc1ccnc(Nc2ccc(C#N)cc2)n1`
102%

Please list remaining at 0.25 h recorded for the compound `COc1cc(-c2ccc(C#N)cc2)ccc1/C(=N\N)c1ccnc(Nc2ccc(C#N)cc2)n1`
104%

###

Provide the recorded CC50 for the entries that follow.
experimental.details: Cytotoxicity against human MT4 cells by MTT assay
Type: toxicity, cell-based
Please give a number only; it is taken to be in µM.

Tell us which CC50 value is on record for `C/N=C(/c1ccnc(Nc2ccc(C#N)cc2)n1)c1ccc(-c2ccc(C#N)cc2)cc1C(F)(F)F`
119

Return the recorded CC50 value; entry: CCNC(c1ccnc(Nc2ccc(C#N)cc2)n1)c1ccc(-c2ccc(C#N)cc2)cc1C (stereo not drawn)
12

Specify reported CC50 for the compound shown: CNC(c1ccnc(Nc2ccc(C#N)cc2)n1)c1ccc(-c2ccc(C#N)cc2)cc1OC(F)(F)F (stereo not drawn)
18

Indicate its recorded CC50; the compound in question is `N#Cc1ccc(Nc2nccc(/C(=N/N)c3c(F)cc(-c4ccc(C#N)cc4)cc3F)n2)cc1`
23

Find the measured CC50 of N#Cc1ccc(Nc2nccc(C(NCCO)c3ccc(-c4ccc(C#N)cc4)cc3Cl)n2)cc1 (stereo not drawn) and report it.
22

Answer with the recorded CC50 for the compound listed here: CC(C)NC(c1ccnc(Nc2ccc(C#N)cc2)n1)c1ccc(-c2ccc(C#N)cc2)cc1C(F)(F)F (stereo not drawn)
29

Recall and state the measured CC50 for N#Cc1ccc(Nc2nccc(C(NC3CC3)c3ccc(-c4ccc(C#N)cc4)cc3C(F)(F)F)n2)cc1 (stereo not drawn) .
75

Output measured CC50 for this item: CCNC(c1ccnc(Nc2ccc(C#N)cc2)n1)c1ccc(-c2ccc(C#N)cc2)cc1OC(F)(F)F (stereo not drawn)
21

Look up CC50 of N#Cc1ccc(Nc2nccc(C(NC3CC3)c3ccc(-c4ccc(C#N)cc4)cc3OC(F)(F)F)n2)cc1 (stereo not drawn) and report it.
73

Please give the documented CC50 of CCNC(c1ccnc(Nc2ccc(C#N)cc2)n1)c1ccc(-c2ccc(C#N)cc2)cc1F (stereo not drawn)
31

# return recorded CC50 for entry CCNC(c1ccnc(Nc2ccc(C#N)cc2)n1)c1ccc(-c2ccc(C#N)cc2)cc1Cl (stereo not drawn)
19

Give the reported value of CC50 for this record: N#Cc1ccc(Nc2nccc(C(NCCCl)c3ccc(-c4ccc(C#N)cc4)cc3Cl)n2)cc1 (stereo not drawn)
243

###

System: Human immunodeficiency virus 1
experimental.details: Antiviral activity against HIV-1 harboring Y188L mutant infected in human MT4 cells assessed as inhibition of virus-induced cytopathic effect by MTT assay
condition.description: Human immunodeficiency virus 1, MT4
readout.label: EC50

Tell me measured EC50 for CNC(c1ccnc(Nc2ccc(C#N)cc2)n1)c1ccc(-c2ccc(C#N)cc2)cc1OC(F)(F)F (stereo not drawn) please.
≥ 7.21 µM

Supply EC50 value. Item: `C/N=C(/c1ccnc(Nc2ccc(C#N)cc2)n1)c1ccc(-c2ccc(C#N)cc2)cc1C`
> 46.7 µM

Please give measured EC50 of the following entry: `N#Cc1ccc(Nc2nccc(/C(=N/N)c3ccc(-c4ccc(C#N)cc4)cc3F)n2)cc1`
> 46.1 µM

###

experimental.details: Cytotoxicity against human MT4 cells by MTT assay
Format: toxicity, cell-based
readout.label: CC50

Tell me its CC50 given `C/N=C(/c1ccnc(Nc2ccc(C#N)cc2)n1)c1ccc(-c2ccc(C#N)cc2)cc1C` as the entry.
> 47 µM

Please report the measured CC50 for N#Cc1ccc(Nc2nccc(C(NCC(F)(F)F)c3ccc(-c4ccc(C#N)cc4)cc3Cl)n2)cc1 (centres undefined)
> 241 µM

Consider the molecule `C/N=C(/c1ccnc(Nc2ccc(C#N)cc2)n1)c1ccc(-c2ccc(C#N)cc2)cc1OC(F)(F)F` . State its measured CC50.
> 251 µM

Query CC50 for N#Cc1ccc(Nc2nccc(C(NCCCCl)c3ccc(-c4ccc(C#N)cc4)cc3Cl)n2)cc1 (centres undefined)
> 244 µM

###

experimental.details: Cytotoxicity against human MT4 cells by MTT assay
Format: toxicity, cell-based
Field: CC50. Provide a value for each of the compounds that follow.

Identify measured CC50 associated with `Cc1cc(C#N)cc(C)c1Oc1nc(Nc2ccc(C#N)cc2)nc(N)c1Br`
> 4.6 µM

Tell me its CC50 given N#Cc1ccc(Nc2nccc(C(NC3CC3)c3ccc(-c4ccc(C#N)cc4)cc3Cl)n2)cc1 (configuration not stated) as the entry.
> 262 µM

Hello, please tell me recorded CC50 for this one: `Cc1cc(-c2ccc(C#N)cc2)ccc1/C(=N\N)c1ccnc(Nc2ccc(C#N)cc2)n1`
> 291 µM

Complete the entry with CC50 for `C/N=C(/c1ccnc(Nc2ccc(C#N)cc2)n1)c1ccc(-c2ccc(C#N)cc2)cc1Cl`
> 45 µM

Hello, please tell me recorded CC50 for this one: N#Cc1ccc(Nc2nccc(C(NCCF)c3ccc(-c4ccc(C#N)cc4)cc3Cl)n2)cc1 (configuration not stated)
> 259 µM

Quickly give me recorded CC50 for CCCNC(c1ccnc(Nc2ccc(C#N)cc2)n1)c1ccc(-c2ccc(C#N)cc2)cc1C (configuration not stated)
> 273 µM

Output measured CC50 for this item: `N#Cc1ccc(Nc2nccc(/C(=N/N)c3ccc(-c4ccc(C#N)cc4)cc3F)n2)cc1`
> 46 µM

###

So I've got a bunch of compounds here, and I need their selectivity ratio values.
experimental.details: Selectivity index, ratio of CC50 for cytotoxicity against human MT4 cells to EC50 for antiviral activity against wild type HIV-1 IIIB infected in human MT4 cells
Assay type: toxicity, cell-based
condition.description: read-out: Ratio CC50/EC50

In one line, give reported selectivity ratio of the entry Cc1cc(-c2ccc(C#N)cc2)ccc1C(NC1CC1)c1ccnc(Nc2ccc(C#N)cc2)n1 (configuration not stated) .
> 1760

Tell me its selectivity ratio given `C/N=C(/c1ccnc(Nc2ccc(C#N)cc2)n1)c1ccc(-c2ccc(C#N)cc2)cc1C` as the entry.
> 3940

Answer with reported selectivity ratio of `N#Cc1ccc(Nc2nccc(/C(=N/N)c3ccc(-c4ccc(C#N)cc4)cc3F)n2)cc1`
> 6210

Identify the reported selectivity ratio for the following entry. N#Cc1ccc(Nc2nccc(C(NC3CC3)c3ccc(-c4ccc(C#N)cc4)cc3F)n2)cc1 (configuration not stated)
> 431

In one line, give reported selectivity ratio of the entry N#CCCNC(c1ccnc(Nc2ccc(C#N)cc2)n1)c1ccc(-c2ccc(C#N)cc2)cc1Cl (configuration not stated) .
> 3600

Identify selectivity ratio associated with the compound `C/N=C(/c1ccnc(Nc2ccc(C#N)cc2)n1)c1ccc(-c2ccc(C#N)cc2)cc1Cl`
> 7140

Please list selectivity ratio recorded for the compound N#Cc1ccc(Nc2nccc(C(NCCF)c3ccc(-c4ccc(C#N)cc4)cc3Cl)n2)cc1 (configuration not stated)
> 3370

Look up and report measured selectivity ratio for this entry: N#Cc1ccc(Nc2nccc(C(NCCCCl)c3ccc(-c4ccc(C#N)cc4)cc3Cl)n2)cc1 (configuration not stated)
> 1260

Please look at this compound and report its selectivity ratio: CCCNC(c1ccnc(Nc2ccc(C#N)cc2)n1)c1ccc(-c2ccc(C#N)cc2)cc1Cl (configuration not stated)
> 1420

Name the recorded selectivity ratio of the item `Cc1cc(-c2ccc(C#N)cc2)ccc1/C(=N\N)c1ccnc(Nc2ccc(C#N)cc2)n1` in your answer.
> 45000

Quote selectivity ratio reported for N#Cc1ccc(Nc2nccc(C(NCC(F)(F)F)c3ccc(-c4ccc(C#N)cc4)cc3Cl)n2)cc1 (configuration not stated) please.
> 1070

Dear colleague, please send me the reported selectivity ratio for CCCNC(c1ccnc(Nc2ccc(C#N)cc2)n1)c1ccc(-c2ccc(C#N)cc2)cc1F (configuration not stated) when you can.
> 1060

###

Give measured selectivity ratio for each item. Keep answers brief.
experimental.details: Selectivity index, ratio of CC50 for cytotoxicity against human MT4 cells to EC50 for antiviral activity against wild type HIV-1 IIIB infected in human MT4 cells
Format: toxicity, cell-based
condition.description: read-out: Ratio CC50/EC50

Look up and report measured selectivity ratio for this entry: N#Cc1ccc(Nc2nccc(C(NC3CC3)c3ccc(-c4ccc(C#N)cc4)cc3Cl)n2)cc1 (stereo not drawn)
> 1800

Determine its reported selectivity ratio: CCCNC(c1ccnc(Nc2ccc(C#N)cc2)n1)c1ccc(-c2ccc(C#N)cc2)cc1C (stereo not drawn)
> 1870

Specify measured selectivity ratio for `C/N=C(/c1ccnc(Nc2ccc(C#N)cc2)n1)c1ccc(-c2ccc(C#N)cc2)cc1OC(F)(F)F` .
> 19100

###

Assign CC50 to each entry below.
experimental.details: Cytotoxicity against human MT4 cells by MTT assay
Assay type: toxicity, cell-based

Specify measured CC50 for N#CCCNC(c1ccnc(Nc2ccc(C#N)cc2)n1)c1ccc(-c2ccc(C#N)cc2)cc1Cl (stereo unspecified) .
> 255 µM

Return value of CC50 for input CCCNC(c1ccnc(Nc2ccc(C#N)cc2)n1)c1ccc(-c2ccc(C#N)cc2)cc1F (stereo unspecified) , no commentary.
> 270 µM

Answer with the recorded CC50 of O=C1Nc2ccc(Cl)cc2[C@@](C#CC2CC2)(C(F)(F)F)O1 [EFAVIRENZ] only.
> 6.3 µM

Tell me CC50 reported for Cc1cc(-c2ccc(C#N)cc2)ccc1C(NC1CC1)c1ccnc(Nc2ccc(C#N)cc2)n1 (stereo unspecified)
> 274 µM

Name the recorded CC50 of the molecule listed here: N#Cc1ccc(Nc2nccc(C(NC3CC3)c3ccc(-c4ccc(C#N)cc4)cc3F)n2)cc1 (stereo unspecified)
> 271 µM

Entry CCCNC(c1ccnc(Nc2ccc(C#N)cc2)n1)c1ccc(-c2ccc(C#N)cc2)cc1Cl (stereo unspecified) needs its CC50 filled in; supply it.
> 261 µM
